Entries and their TGI values follow.
system: SK-MEL-28 melanoma; test: NCI tumour cell line growth inhibition, 48 h

molecular string: Cc1ccc2c(c1)[nH]c(=S)n2/C=C1\C(=O)Oc2ccccc2C1=O
TGI: > 100 µM

molecular string: Nc1ncnc2nc[nH]c12
TGI: > 250 µM

molecular string: COC(=O)/C=C(/C)n1nc2ccccc2n1
TGI: > 100 µM

---

system: SW-620 colon; experiment: NCI tumour cell line growth inhibition, 48 h
Entries and their TGI values follow.
readout label: TGI

compound: COC(=O)c1nc(-c2ccccc2)oc1S(=O)(=O)Cc1ccccc1
observed value: 4.14 µM
--
compound: Nc1ncnn2c(C3OC(CO)C(O)C3O)ccc12 (stereo not given)
observed value: 35.1 µM
--
compound: COc1cc2c(c(OC)c1OC)-c1ccc(SC)c(=O)cc1C(CO)C2 (stereo not given)
observed value: > 100 µM
--
compound: CC(=O)OCC1OC(n2cnc(C(N)=S)c2N)C(OC(C)=O)C1OC(C)=O (stereo not given)
observed value: > 100 µM
--
compound: CCOC(=O)/C(C#N)=C\c1ccc(N(CCC(=O)O)CCC(=O)O)c(I)c1
observed value: > 10 µM
--
compound: CC(C)(C)c1ccc(Oc2nccc(-c3c(-c4ccc(F)cc4)ncn3C3CCNCC3)n2)cc1
observed value: 7.82 µM
--
compound: OC(c1ccccc1)(c1ccccc1)c1ccncc1
observed value: > 100 µM
--
compound: Cc1ccc2nc(NC(=O)C(=O)C(C#N)c3nc4ccccc4s3)sc2c1 (stereo not given)
observed value: > 100 µM
--
compound: CC(C)OC(=O)c1ccc(NCc2cc(O)ccc2O)cc1Cl
observed value: > 62.5 µM
--
compound: Cc1cc2c(cc1-c1cc3c(cc1C)C(C(C)C)=C(O)C(=O)/C3=C\Nc1c3ccccc3nc3ccccc13)/C(=C/Nc1c3ccccc3nc3ccccc13)C(=O)C(O)=C2C(C)C
observed value: 13.3 µM
--
compound: CC(C)C1CC[C@@H](C)C[C@@]1(O)CC(N)=O (stereo not given in full)
observed value: > 100 µM
--
compound: COc1ccc2c(c1)c(=O)oc1cc(OC/C(C)=N\O)ccc12
observed value: > 100 µM
--
compound: Cc1cc2c(cc1C)N(C(=O)CCl)CC(=O)N2
observed value: 5.05 µM
--
compound: COc1c(C)c2c(c(O)c1C/C=C(\C)CCC(=O)O)C(=O)OC2
observed value: > 100 µM
--
compound: N#Cc1c(N)nc(-c2ccc(Cl)cc2)c2c1-c1ccccc1S(=O)(=O)CC2
observed value: > 100 µM
--
compound: O=C(CC(=O)N(C(=O)/C=C\c1ccccc1)c1ccc(Cl)cc1)N1N=C(c2ccccc2)C(N=Nc2cccc([N+](=O)[O-])c2)C1=O (stereo not given)
observed value: 57.9 µM
--
compound: Cn1cc(C(=O)NCCC(=N)N)cc1NC(=O)C1=[N+](C)C=C(NC(=O)c2cccc(C(=O)NC3=CC(C(=O)Nc4cc(C(=O)NCCC(=N)N)cn4C)=[N+](C)C3)c2)C1
observed value: > 100 µM
--
compound: C=Cc1ccc(C)[n+](C[Si](C)(C)O[Si](C)(C)C)c1
observed value: > 100 µM
--
compound: C1=NCCN2CCN(CCN=Cc3ccc(cc3)OCc3cccc(n3)COc3ccc1cc3)CC2
observed value: > 50 µM
--
compound: CCC1C2Cc3ccc(O)cc3C1(CC)CCN2C (stereo not given)
observed value: > 100 µM

---

Entries and their TGI values follow.
tested on: COLO 205 colon; assay: NCI tumour cell line growth inhibition, 48 h
*1 amine or outer side, *2 acyl side, *3 side chain or, on linkers, in order; H or OH if unused. Where a SMILES comes first, the peptide text is derived from it. [ ]: non-standard residue; d: D form. The star is where a group is joined. X31 = CC(=O)N(C)SCC(N[*:1])C(=O)[*:2]; Cbz = O=C(OCc1ccccc1)*; Bn = c1ccc(C*)cc1; For = O=C*

compound: CC(=O)N(C)SCC(NC(=O)C(Cc1ccccc1)NC(=O)OCc1ccccc1)C(=O)NC(Cc1ccccc1)C(=O)NC(Cc1cn(C=O)c2ccccc12)C(=O)NC(CCCCNC(=O)OCc1ccccc1)C(=O)NC(C(=O)NC(CSN(C)C(C)=O)C(=O)NC(C(N)=O)C(C)OCc1ccccc1)C(C)OCc1ccccc1 (configuration not stated) (Cbz-F[X31]FW(For)K(Cbz)T(Bn)[X31]T(Bn)-NH2; configuration not given here)
TGI: > 100 µM

compound: CC(=O)OCC1OC(n2cnc(C(N)=S)c2N)C(OC(C)=O)C1OC(C)=O (configuration not stated)
TGI: > 100 µM

compound: COC(=O)N/N=C(\Cc1ccccc1)CN(C)C
TGI: > 100 µM

compound: C[C@]12CCC(=O)C=C1CC[C@@H]1[C@@H]2CC[C@]2(C)C(=O)NC(=O)C[C@@H]12
TGI: > 100 µM

compound: O=C(O)C(/C=C/c1ccccc1)c1ccccc1 (configuration not stated)
TGI: > 100 µM

compound: C1=NCCN2CCN(CCN=Cc3ccc(cc3)OCc3cccc(n3)COc3ccc1cc3)CC2
TGI: > 50 µM

compound: Cn1c2ccccc2c2c(-c3ccccc3)cc3c(c21)C(=O)C=CC3=O
TGI: 2.05 µM

---

Entries and their log10 of TGI values follow.
test system: BT-549 breast; assay: NCI tumour cell line growth inhibition, 48 h
readout label: log10 of TGI (log10 of the value in µM)

compound: COC1=C(OC)C(=O)C(Cc2c(Cl)nc3sc(C)cn23)=C(C)C1=O
log10 of TGI: 1.53

compound: CCOc1cc(NC(C)=O)ccc1C(=O)NN1C(=O)C(Cl)C1c1ccccc1 (configuration not stated)
log10 of TGI: 1.41

compound: O=C1/C(=C\c2ccc(O)cc2)CCC/C1=C/c1ccc(Cl)c(Cl)c1
log10 of TGI: 0.87

compound: NC(N)=N/N=C/c1c(-c2ccc(Cl)cc2)nc2sccn12
log10 of TGI: 1.08

compound: CC1CCC(NC(=O)N(CCCl)N=O)CC1 (configuration not stated)
log10 of TGI: 1.76

compound: Cc1nc2ccccc2n1COC(Cn1ccnc1)c1ccc(Cl)cc1Cl (configuration not stated)
log10 of TGI: 1.96

compound: COc1ccc(-c2nc(-c3nc4ccc(OC)cc4[nH]3)c3ccccn23)cc1
log10 of TGI: 0.95

compound: Fc1ccc2c(c1)C1=NN(c3ccccc3)C(F)C1CO2 (configuration not stated)
log10 of TGI: 1.35

compound: COc1cnc2c(c1)C(=O)c1c-2n(CCCn2ccnc2)c(=O)c2cc(F)ccc12
log10 of TGI: 0.46

compound: C=C1C(=O)O[C@H]2[C@H]1CC/C(COC(=O)NCc1cn(C)c3ccccc13)=C\CC[C@@]1(C)O[C@@H]21
log10 of TGI: 0.27

---

Entries and their TGI values follow.
test system: TK-10 renal; assay: NCI tumour cell line growth inhibition, 48 h

molecule: NC(=O)N/N=C(\CC1OC(=O)c2ccccc21)c1ccco1 (stereo not given)
TGI: > 100 µM
--
molecule: CC(C)=CCC/C(C)=C/CC/C(C)=C/CC/C(C)=C/C=C/C=C(\C)CC/C=C(\C)CC/C=C(\C)CCC=C(C)C
TGI: > 74.3 µM
--
molecule: Cc1cccc(C)c1NC(=O)C(C#N)C1=C(Cl)C(=O)c2ccccc2C1=O (stereo not given)
TGI: 33.7 µM
--
molecule: CN[C@@H](C)C(=O)N[C@H](C(=O)N1CCC[C@H]1C(=O)Nc1snnc1-c1ccccc1)C1CCCCC1
TGI: > 94.9 µM
--
molecule: CCCCNc1nc(C#N)c(N)s1
TGI: > 100 µM

---

Entries and their TGI values follow.
test system: RPMI-8226 leukemia; assay: NCI tumour cell line growth inhibition, 48 h
readout label: TGI

compound: CC(C)Cn1cnc2c(NCC(C)O)nc3ccccc3c21 (centres undefined)
test system: RPMI-8226 leukemia
observed value: > 100 µM
--
compound: COC1=C(OC)C(=O)C(Cc2c(Cl)nc3sc(C)cn23)=C(C)C1=O
test system: RPMI-8226 leukemia
observed value: 31.8 µM
--
compound: COc1ccc(C(=O)OC2C(OC3C(O)COC(O[C@H]4C[C@H]5[C@@H]6CC=C7C[C@@H](O)CC[C@]7(C)[C@H]6CC[C@]5(C)[C@H]4[C@H](C)C(=O)CCC(C)C)C3OC(N)=O)OCC(O)C2O)cc1 (some centres undefined)
test system: RPMI-8226 leukemia
observed value: 0.00997 µM
--
compound: COc1ccc2c3c1O[C@]1(C)C34CCN(C)C(C2)C42C=C[C@@]1(OC)c1c(O)ccc(O)c12
test system: RPMI-8226 leukemia
observed value: > 100 µM
--
compound: COC(=O)/C(C)=C(/CCC1(C)OCCO1)O[Si](C)(C)C
test system: RPMI-8226 leukemia
observed value: > 100 µM
--
compound: Cc1ccc2nc(NC(=O)C(=O)C(C#N)c3nc4ccccc4s3)sc2c1 (centres undefined)
test system: RPMI-8226 leukemia
observed value: 64.8 µM
--
compound: CC(=O)OCC1=C(CCC#N)N2C(=O)C(NC(=O)Cc3cccs3)C2S(=O)C1 (centres undefined)
test system: RPMI-8226 leukemia
observed value: > 100 µM
--
compound: O=c1oc2ccc3ccccc3c2cc1-c1cn2ccccc2n1
test system: RPMI-8226 leukemia
observed value: > 100 µM
--
compound: O=C1c2cc(Cl)ccc2-n2cnnc2C2CSCN12 (centres undefined)
test system: RPMI-8226 leukemia
observed value: > 100 µM
